This section presents compounds with their documented inhibition values.
system_tested: Fascin (Homo sapiens) (UniProt Q16658)
procedure_summary: Inhibition of purified fascin (unknown origin) assessed as reduction in bundle activity at 50 uM pre-incubated for 30 mins before polymerized actin addition and followed by Alexa fluro 488 phalloidin addition after 30 mins and measured after 1 hr under dark condition relative to control

A selection of reference data follows.
smiles_record: N#Cc1ccccc1C(=O)Cc1nn(Cc2ccc(C(F)(F)F)cc2)c2ccccc12
quantity: inhibition
result_value: < 10%
//
smiles_record: CC(=O)Nc1nn(Cc2ccc(C(F)(F)F)cc2)c2cncc(Cl)c12
quantity: inhibition
result_value: < 10%
//
smiles_record: O=C(Nc1nn(Cc2ccc(C(F)(F)F)cc2)c2ccccc12)c1ccc(Cl)cc1
quantity: inhibition
result_value: < 10%
//
smiles_record: CCCC(=O)Nc1nn(Cc2ccc(C(F)(F)F)cc2)c2cncc(Cl)c12
quantity: inhibition
result_value: < 10%
//
smiles_record: FC(F)(F)c1ccc(Cn2nc(-c3cccc4ccccc34)c3ccccc32)cc1
quantity: inhibition
result_value: < 10%
//
smiles_record: Cc1ccc(-c2nn(Cc3ccc(C(F)(F)F)cc3)c3ccccc23)o1
quantity: inhibition
result_value: < 10%
//
smiles_record: FC(F)(F)c1ccc(Cn2nc(-c3ccoc3)c3ccccc32)cc1
quantity: inhibition
result_value: < 10%
//
smiles_record: O=C(Nc1nn(Cc2ccc(C(F)(F)F)cc2)c2cncc(Cl)c12)c1ccoc1
quantity: inhibition
result_value: < 10%

Give reported inhibition value for Cc1ncsc1C(=O)Nc1nn(Cc2ccc(C#N)cc2)c2ccccc12
< 10%

Give the reported value of inhibition for this record: Cc1occc1-c1nn(Cc2ccc(C(F)(F)F)cc2)c2ccccc12
< 10%

Write down inhibition measured for item O=[N+]([O-])c1cn(Cc2ccccc2)c2ccc(Br)cc12
< 10%

Supply reported inhibition belonging to this compound: FC(F)(F)c1ccc(Cn2nc(Br)c3ccccc32)cc1
< 10%

// Input: Cc1nocc1C(=O)Nc1nn(Cc2ccc(C(F)(F)F)cc2)c2cncc(Cl)c12 . Output its inhibition only.
< 10%

Look up and state reported inhibition for FC(F)(F)c1ccc(Cn2nc(-c3ccccc3)c3ccccc32)cc1
< 10%

Using the record for Cc1occc1C(=O)Nc1nn(Cc2ccc(C(F)(F)F)cc2)c2cncc(Cl)c12 , state its measured inhibition.
< 10%

Recall and state the measured inhibition for O=[N+]([O-])c1cn(Cc2ccc(C(F)(F)F)cc2)c2ccc(Br)cc12 .
< 10%

Determine from records and report inhibition for O=C(Nc1nn(Cc2ccc(C(F)(F)F)cc2)c2ccccc12)c1cccc(Cl)c1
< 10%

Kindly indicate its recorded inhibition. Item: Cc1ccc(-c2ccc(C(=O)Nc3nn(Cc4ccc(C(F)(F)F)cc4)c4ccccc34)o2)cc1
< 10%

Tell me its inhibition given CNc1nn(Cc2ccc(C(F)(F)F)cc2)c2cncc(Cl)c12 as the entry.
< 10%
